Molecular target: T1, human NGF (human, UniProt P01138 122-241)
T1 construct: also called human Nerve Growth Factor; hN
T1 chain: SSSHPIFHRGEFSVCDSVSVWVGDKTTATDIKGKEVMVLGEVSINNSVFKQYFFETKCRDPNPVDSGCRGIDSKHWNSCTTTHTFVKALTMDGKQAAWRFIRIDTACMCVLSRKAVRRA
Assay: SPR (Biacore T200), 100 nM mAb on NGF chip, similarity to parent mAb
Text: The region of an antibody responsible for antigen recognition represents the paratope. A paratope is created by a combination of amino acids in the complementarity determining regions (CDRs) of both the heavy and light chain variable regions. The binding between antibody and antigen is often mediated by side chains of CDR residues with side chains or carbohydrate moieties of the antigen. […]
The entries below are paired with their reported Percent Similarity Score (KD on hN).
Write it as a number; the unit % goes unstated.

Completed entries (count: 2):
| binder | observed result |
| --- | --- |
| can9L12VL_S91A (antibody, V domains shown) VH: EVQLVESGGDLVKPGGSLRLSCVASGFTFSSHGMHWVRQSPGKGLQWVAVINSGGSSTYYTDAVKGRFTISRDNAKNTVYLQMNSLRAEDTAMYYCAKESVGGWEQLVGPHFDYWGQGTLVIVSS VL: QSVLTQPTSVSGSLGQRVTISCSGSTNNIGILGASWYQLFPGKAPKLLVYGNGNRPSGVPDRFSGADSGDSVTLTITGLQAEDEADYYCQAFDTTLGAHVFGGGTHLTVL | 11.6 |
| can9L12VH_S31A (antibody, V domains shown) VH: EVQLVESGGDLVKPGGSLRLSCVASGFTFSAHGMHWVRQSPGKGLQWVAVINSGGSSTYYTDAVKGRFTISRDNAKNTVYLQMNSLRAEDTAMYYCAKESVGGWEQLVGPHFDYWGQGTLVIVSS VL: QSVLTQPTSVSGSLGQRVTISCSGSTNNIGILGASWYQLFPGKAPKLLVYGNGNRPSGVPDRFSGADSGDSVTLTITGLQAEDEADYYCQSFDTTLGAHVFGGGTHLTVL | 99.9 |

Now for the binder whose Percent Similarity Score (KD on hN) we want.
Prompt: Which Percent Similarity Score (KD on hN) is listed for can48L2VH_I51A (antibody, V domains shown, CDR scanning mutant of ZTS-842 (48L2)) VH: EVQLVESGGDLVKPGGSLRLSCVASGFTFSTYGINWVRQAPGKGLQWVAYASSGGSSTYYADPVKGRFTISRDDAKNMLYLQMNSLRAEDTAIYYCAGSRYTYAYGGGYEFHFWGQGTLVTVSS VL: QAVLNQPASVSGALGQKVTISCSGSTMDIDIFGVSWYQQLPGKAPKLLVDSDGDRPSGIPDRFSGSRSGNSGTLTITGLQAEDEADYHCQSGDSTLGALAIFGGGTHVTVL ?
Completion: 81.8
